# assay remarks: qHTS for Inhibitors of human tyrosyl-DNA phosphodiesterase 1 (TDP1): qHTS in cells in presence of CPT; also: nearly all actives have a fitted effect of over 55% in size
# recorded conditions: chicken DT40 Tdp1-/-;hTDP1 cells + 20 nM CPT, ATP luminescence, 48 h; series mostly up to 46.2 µM
Out of some 420,000 compounds screened, about 50,000 (12%) were called active. About 26% were inconclusive and are not listed. Calls follow the shape of the dose curve; as a rule, active = well fitted inhibition curve with a large enough effect; inconclusive = small, poorly fitted or top-dose-only effect; inactive = flat fitted curve, though single readings scatter. The full list was thinned out, with actives kept by preference.
Outcomes: active, inactive

molecule	class assignment
COc1ccc(CNC(=O)COC(=O)CCS(=O)(=O)c2ccc(C)cc2)cc1OC	inactive
CCN(C(=O)CSc1ncnc2sccc12)c1c(N)n(Cc2ccccc2)c(=O)[nH]c1=O	inactive
O=c1ccc2cc(S(=O)(=O)NCCCc3ccccc3)ccc2[nH]1	inactive
CCCn1c(C(O)c2cc(OC)ccc2OC)nc2ccccc21 (configuration not stated)	inactive
CCOC(=O)c1sc(N)c(C#N)c1COC(=O)C1=COCCO1	inactive
O=C(NCCCc1ccccc1)C1CCC(CNc2c(N3CCCCC3)c(=O)c2=O)CC1 (configuration not stated)	inactive
CCCn1c(C(O)c2ccc(OCC)cc2)nc2ccccc21 (configuration not stated)	active
CCOC(=O)c1c(NC(=O)COc2cc(C)ccc2C(C)C)sc(C)c1C	inactive
CC(C)(C)c1nnc(N/N=C/c2ccc(O)cc2)n(N)c1=O	inactive
Cc1cnc(C(=O)OCC(=O)Nc2ccc(Cl)cc2Cl)cn1	inactive
CCn1c(C)cc(=O)cc1-c1ccc(Cl)cc1	inactive
Cc1cc(C)nc(Nc2n[nH]c(-c3ccccc3N)n2)n1	inactive
COc1cccc(C(=O)NC2(C(F)(F)F)C(=O)Nc3c2c(=O)[nH]c(=O)n3-c2ccc(C)cc2)c1 (configuration not stated)	active
Cc1ccc(Cn2c(CCCNC(=O)C3CCCCC3)nc3ccccc32)cc1	active
O=C(OCC(=O)N1CCCCC1)c1ccc(OC(F)(F)F)cc1	inactive
O=C(NCCSc1ncc(-c2ccccc2)[nH]1)c1ccco1	inactive
O=C(NCCN1CCOCC1)/C(=C/c1ccc(F)cc1)NC(=O)c1ccccc1	inactive
O=C(OCC(=O)N1CCN(C(=O)c2ccco2)CC1)c1c(Cl)cccc1Cl	inactive
O=C(CN1CCN(S(=O)(=O)c2ccc3ccccc3c2)CC1)NC(=O)NC1CCCCC1	inactive
Cc1ccc2[nH]cc(CCNC(=O)C3CCCCC3)c2c1	inactive
Cc1cc(NC(=O)c2ccccc2C)no1	inactive
Cc1ccc(S(=O)(=O)N2C[C@]3(O)C[C@@H]4C(=O)N(c5ccccc5)C(=O)[C@@H]4C[C@]3(OC(=O)NC3CC3)C2)cc1	inactive
